cytotoxicity at 10 µM listing for selected compounds.
experiment: Toxicity liver stage against HepG2, at 10uM; format: cell-based; set-up: test concentration 10 uM, cell line HepG2-A16-CD81EGFP; settings: human, HepG2-A16-CD81EGFP cells; read-out: INHIBITION
Your answer should be a plain number; it is taken to be in %.

COc1ccccc1C(NC(=O)NC1CC1)c1noc(C)n1 (configuration not stated) ... -4.12
CN1CCCC1CNC(=O)CCCOc1cccc(Br)c1 (configuration not stated) ... -11.3
C=Cn1ncc(CN2C[C@@H]3C[C@@H](O)CN3C[C@@H]2Cc2ccccc2)c1C ... 4.02
CCNC(=O)[C@@H]1C[C@H](NC(=O)Cn2ccnc2)CN1Cc1ccsc1 ... 5.89
Clc1cnccc1N1CCCOCC1 ... -0.625
O=c1ccc2c(n1Cc1cccnc1)CCN(CC1CCOC1)CC2 (configuration not stated) ... 8.13

Switching to the query record.
q: Would you kindly share the measured cytotoxicity at 10 µM for O=C(O)c1ccccc1-c1ccc(CN2CCCC(O)C2)cc1 (configuration not stated) ?
a: -9.16

Ref: ChEMBL document CHEMBL4513216
